# Test system: HCV-Luc
# testProtocol: HCV-Luc infection assay
# Assay type: cell-based
# appliedConditions: Hepatitis C virus; Table 6; read-out: EC50
pEC50: −log10 of the molar value.

compound | relationSign | pEC50
CC(C)N1CCC(N(CCc2ccccc2)Cc2ccccc2)CC1 [Isopropyl] | = | 6.03
CC(=O)N1CCC(N(CCc2ccccc2)Cc2ccccc2)CC1 [Acetyl] | < | 4.50
c1ccc(CCN(Cc2ccccc2)C2CCN(Cc3ccc(-c4ccccc4)cc3)CC2)cc1 [4-Phenylbenzyl] | = | 4.91
FC(F)(F)c1ccc(CN2CCC(N(CCc3ccccc3)Cc3ccccc3)CC2)cc1 [4-Trifluoromethylbenzyl] | < | 5.00
c1ccc(CCN(Cc2ccccc2)C2CCN(C3CCCC3)CC2)cc1 [Cyclopentyl] | = | 6.32

* * *

# Test system: HCV-Luc
# testProtocol: HCV-Luc infection assay
# Type: cell-based
# appliedConditions: Table 3
quantityKind: Selective Index

molecule | targetSystem | relationSign | valueReported
NC(=O)COCCN1CCN(C(c2ccccc2)c2ccc(Cl)cc2)CC1 (racemic) [CH2CH2OCH2CONH2 (R,S)] | HCV-Luc | > | 910
Clc1ccc([C@H](c2ccccc2)N2CCN(C3CCCCC3)CC2)cc1 [Cyclohexyl (S)] | HCV-Luc | = | 69
CC(=O)N1CCN([C@@H](c2ccccc2)c2ccc(Cl)cc2)CC1 [Acetyl (S)] | HCV-Luc | = | 4
Clc1ccc([C@H](c2ccccc2)N2CCN(C3CCCC3)CC2)cc1 [Cyclopentyl (S)] | HCV-Luc | = | 1600
COc1ccc(CN2CCN([C@@H](c3ccccc3)c3ccc(Cl)cc3)CC2)c(OC)c1 [2-4-dimethoxybenzyl (S)] | HCV-Luc | = | 84
NCCOCCOCCOCCOCCN1CCN(C(c2ccccc2)c2ccc(Cl)cc2)CC1 (racemic) [(CH2CH2O)4CH2CH2NH2 (R,S)] | HCV-Luc | = | 3050
CC(C)CN1CCN([C@H](c2ccccc2)c2ccc(Cl)cc2)CC1 [2-methyl-1-propyl (R)] | HCV-Luc | = | 251
NCCOCCN1CCN(C(c2ccccc2)c2ccc(Cl)cc2)CC1 (racemic) [CH2CH2OCH2CH2NH2 (R,S)] | HCV-Luc | = | 1704
CCCCN1CCN([C@@H](c2ccccc2)c2ccc(Cl)cc2)CC1 [n-Bu (S)] | HCV-Luc | = | 740
CC(C)CN1CCN([C@@H](c2ccccc2)c2ccc(Cl)cc2)CC1 [2-methyl-1-propyl (S)] | HCV-Luc | = | 507
CC(=O)NCCOCCOCCOCCOCCN1CCN(C(c2ccccc2)c2ccc(Cl)cc2)CC1 (racemic) [(CH2CH2O)4CH2CH2NHC(═O)Me (R,S)] | HCV-Luc | > | 588
O=C1c2ccccc2C(=O)N1CCOCCN1CCN(C(c2ccccc2)c2ccc(Cl)cc2)CC1 (stereo not shown) | HCV-Luc | > | 65
CCCN1CCN([C@H](c2ccccc2)c2ccc(Cl)cc2)CC1 [n-Pr (R)] | HCV-Luc | = | 2021
Clc1ccc([C@H](c2ccccc2)N2CCNCC2)cc1 [H (S)] | HCV-Luc | = | 0274
CC(C)(C)OC(=O)NCCOCCOCCOCCOCCN1CCN(C(c2ccccc2)c2ccc(Cl)cc2)CC1 (racemic) [(CH2CH2O)4(CH2)2NHC(═O)Ot-Bu (R,S)] | HCV-Luc | = | 95
CC(C)N1CCN([C@@H](c2ccccc2)c2ccc(Cl)cc2)CC1 [i-Pr (S)] | HCV-Luc | = | 2492
CCCN1CCN([C@@H](c2ccccc2)c2ccc(Cl)cc2)CC1 [n-Pr (S)] | HCV-Luc | = | 1241
Clc1ccc([C@@H](c2ccccc2)N2CCNCC2)cc1 [H (R)] | HCV-Luc | = | 391
CCCCN1CCN([C@H](c2ccccc2)c2ccc(Cl)cc2)CC1 [n-Bu (R)] | HCV-Luc | = | 309

Data provenance: patent US20170001988A1
